# tgt: Cyno in house BCMA
# Sequence (as listed by the source): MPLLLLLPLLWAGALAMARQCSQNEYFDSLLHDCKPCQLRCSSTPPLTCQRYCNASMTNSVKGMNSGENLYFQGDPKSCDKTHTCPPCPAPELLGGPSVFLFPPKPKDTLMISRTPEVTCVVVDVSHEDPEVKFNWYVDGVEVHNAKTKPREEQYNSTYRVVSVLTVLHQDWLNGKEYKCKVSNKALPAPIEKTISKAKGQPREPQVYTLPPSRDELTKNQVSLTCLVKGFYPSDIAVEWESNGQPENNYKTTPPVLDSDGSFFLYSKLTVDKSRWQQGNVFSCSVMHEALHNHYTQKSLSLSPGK
# protocol_summary: ProteOn analysis of CA8 chimeric and humanised constructs, cyno in house BCMA
# Format: binding
# condition_set: Run 1, Cyno in house BCMA, 25° C., in s-1 (unit assumed)
attribute_measured: kd
Note: the reply should be a number with no unit written.

What measured kd goes with CA8 humanised J0M1: humanised CA8 anti-BCMA antibody, VH J0 (SEQ ID NO:11) + VL M1 (SEQ ID NO:33) (antibody, V domains shown, Humansed antibody sequence) VH: QVQLVQSGAEVKKPGSSVKVSCKASGGTFSNYWMHWVRQAPGQGLEWMGATYRGHSDTYYNQKFKGRVTITADKSTSTAYMELSSLRSEDTAVYYCARGAIYNGYDVLDNWGQGTLVTVSS VL: DIQMTQSPSSLSASVGDRVTITCSASQDISNYLNWYQQKPGKAPKLLIYYTSNLHSGVPSRFSGSGSGTDYTLTISSLQPEDFATYYCQQYRKLPWTFGQGTKLEIKR ? 1.67E−04
